Recorded values, source the supplement of paper PMC10681739.

TARGET_DESC: RUNX1 (UniProt Q01196)
Sequence (Q01196 whole entry): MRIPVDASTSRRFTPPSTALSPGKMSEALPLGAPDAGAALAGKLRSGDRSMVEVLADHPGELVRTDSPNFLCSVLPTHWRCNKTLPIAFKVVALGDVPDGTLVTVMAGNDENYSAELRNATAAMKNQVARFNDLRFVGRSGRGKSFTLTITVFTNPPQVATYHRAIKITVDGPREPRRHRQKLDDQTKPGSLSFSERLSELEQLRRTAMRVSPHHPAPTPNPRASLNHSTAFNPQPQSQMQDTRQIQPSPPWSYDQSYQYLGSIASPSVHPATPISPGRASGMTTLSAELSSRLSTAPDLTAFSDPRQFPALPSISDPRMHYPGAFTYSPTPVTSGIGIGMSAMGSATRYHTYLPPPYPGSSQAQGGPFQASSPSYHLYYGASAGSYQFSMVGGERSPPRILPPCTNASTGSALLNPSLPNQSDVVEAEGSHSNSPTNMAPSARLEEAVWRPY
MEASUREMENT_PROTOCOL: RUNX1 binding intensity (PBM fluorescence), RUNX1 alone (arbitrary fluorescence units); higher = stronger binding;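 note: Full-length recombinant human RUNX1 bound to double-stranded 36-bp genomic probes on a high-density microarray, scored as Alexa488 fluorescence per spot via anti-RUNX1 antibody, median of four replicate spots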
MEASUREMENT_CONTEXT: RUNX1 concentration 2 nM; ETS1 concentration 0 nM

>  <CONSTRUCT_SEQUENCE>
GAGCCGGAAGTGAAGGAGGGCTTGTGGGAGATGGAG

>  <RUNX1 binding intensity>
713

$$$$
>  <CONSTRUCT_SEQUENCE>
CTTTGTTACTTTGGGGAAATGTGGTTCTGCGCCACC

>  <RUNX1 binding intensity>
1110

$$$$
>  <CONSTRUCT_SEQUENCE>
AACAGCACACAGGAAGTTACCGCTGAAGCAAAGGAG

>  <RUNX1 binding intensity>
813

$$$$
>  <CONSTRUCT_SEQUENCE>
GCAGCTGCAAACAGGAAACCACAGCAGCGTAGCGGA

>  <RUNX1 binding intensity>
962

$$$$
>  <CONSTRUCT_SEQUENCE>
AACATCCTGTGTAAAGAGAATTGAATGTGGTTTTCT

>  <RUNX1 binding intensity>
821

$$$$
>  <CONSTRUCT_SEQUENCE>
TCTGGATTTCCTGTGGGGCTCTCCCACAAGCAGTAC

>  <RUNX1 binding intensity>
721

$$$$
